Each recorded value in this set is attributed to patent US20180339017A1.

Reported EC50 hGCGR (cAMP activity assay) values for the following binders.
target: human glucagon receptor (human, UniProt P47871 26-477)
Sequence (P47871 26-477): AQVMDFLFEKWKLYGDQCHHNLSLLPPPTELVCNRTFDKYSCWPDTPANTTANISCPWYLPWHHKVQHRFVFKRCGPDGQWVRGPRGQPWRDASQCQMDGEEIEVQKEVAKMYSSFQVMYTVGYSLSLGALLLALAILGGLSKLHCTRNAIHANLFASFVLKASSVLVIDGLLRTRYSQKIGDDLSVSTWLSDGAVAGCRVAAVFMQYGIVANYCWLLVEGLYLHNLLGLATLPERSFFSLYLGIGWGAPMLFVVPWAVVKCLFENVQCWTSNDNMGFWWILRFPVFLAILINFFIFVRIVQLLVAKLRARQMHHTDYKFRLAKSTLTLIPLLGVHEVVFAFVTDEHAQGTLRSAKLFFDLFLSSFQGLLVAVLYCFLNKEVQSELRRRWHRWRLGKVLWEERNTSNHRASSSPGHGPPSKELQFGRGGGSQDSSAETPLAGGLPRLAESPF
assay info: cell-based or functional assay
No end group written: not given here.
Please append the unit to your numeric answer.

Worked examples follow.
HSQGTFTSDYSKYLDWRRAQDFVQWLQNT-NH2 [PD44]
0.02 nM
HSQGTFTSDYSKYLDSRRAQDFVQWLLNQ-NH2 [PD57]
0.02 nM

Then there is this binder:
So, HSQGTFTSDYSKYLDMQRAHDFVQWLMNT-NH2 [PD55] ? Its EC50 hGCGR (cAMP activity assay) was 0.01 nM
